assay: Single-dose pharmacokinetics of metapristone in rats (p.o. and i.v.), non-compartmental analysis; format: in vivo, Sprague Dawley (SD) rats; settings: Sprague-Dawley, rat, plasma, po; female rats, p.o. 45 mg/kg; read-out: T max
MEASURED_PARAMETER: Tmax

Problem: Consider the molecule CC#C[C@]1(O)CC[C@H]2[C@@H]3CCC4=CC(=O)CCC4=C3[C@@H](c3ccc(NC)cc3)C[C@@]21C [metapristone, N-monodemethyl mifepristone] . State its measured Tmax.
Result: 11 h

###

assay: Single-dose pharmacokinetics of metapristone in rats (p.o. and i.v.), non-compartmental analysis; type: in vivo, Sprague Dawley (SD) rats; settings: Sprague-Dawley, rat, plasma, po; female rats, p.o. 90 mg/kg
MEASURED_PARAMETER: AUC(0-inf) (ng·h/mL)
Expressed in ng·h/mL, but write only the number.

Problem: Complete the entry with AUC(0-inf) for CC#C[C@]1(O)CC[C@H]2[C@@H]3CCC4=CC(=O)CCC4=C3[C@@H](c3ccc(NC)cc3)C[C@@]21C
Result: 15600

###

assay: Single oral dose pharmacokinetics of metapristone in beagle dogs, non-compartmental analysis; type: in vivo; conditions: beagle, dog, plasma, po; male dogs, p.o. 11.25 mg/kg; read-out: MRT (0-t)
MEASURED_PARAMETER: MRT last
Returns: string containing the number followed by the unit.

Problem: Hello, please tell me recorded MRT last for this one: CC#C[C@]1(O)CC[C@H]2[C@@H]3CCC4=CC(=O)CCC4=C3[C@@H](c3ccc(NC)cc3)C[C@@]21C
Result: 5.68 h

###

assay: Single-dose pharmacokinetics of metapristone in rats (p.o. and i.v.), non-compartmental analysis; assay type: in vivo, Sprague Dawley (SD) rats; conditions: Sprague-Dawley, rat, plasma, iv; male rats, i.v. 10 mg/kg
MEASURED_PARAMETER: AUC(0-inf) (ng·h/mL)
All answers are understood in ng·h/mL, so give the number only.

Problem: Query AUC(0-inf) for CC#C[C@]1(O)CC[C@H]2[C@@H]3CCC4=CC(=O)CCC4=C3[C@@H](c3ccc(NC)cc3)C[C@@]21C [metapristone, N-monodemethyl mifepristone]
Result: 5460

###

assay: Single-dose pharmacokinetics of metapristone in rats (p.o. and i.v.), non-compartmental analysis; assay type: in vivo, Sprague Dawley (SD) rats; settings: Sprague-Dawley, rat, plasma, po; male rats, p.o. 45 mg/kg
MEASURED_PARAMETER: AUC(0-t) (ng·h/mL)
Dear colleague, please return just the value in ng·h/mL, with no unit written.

Problem: Give the value of AUC(0-t) reported for the following: CC#C[C@]1(O)CC[C@H]2[C@@H]3CCC4=CC(=O)CCC4=C3[C@@H](c3ccc(NC)cc3)C[C@@]21C
Result: 1960

###

test: Single oral dose pharmacokinetics of metapristone in beagle dogs, non-compartmental analysis; format: in vivo; settings: beagle, dog, plasma, po; female dogs, p.o. 5.6 mg/kg
MEASURED_PARAMETER: CL/F (mL/min/kg)
Kindly provide the numeric value in mL/min/kg only, without the unit symbol.

Problem: Give CL/F for CC#C[C@]1(O)CC[C@H]2[C@@H]3CCC4=CC(=O)CCC4=C3[C@@H](c3ccc(NC)cc3)C[C@@]21C
Result: 165

###

test: Single-dose pharmacokinetics of metapristone in rats (p.o. and i.v.), non-compartmental analysis; assay type: in vivo, Sprague Dawley (SD) rats; conditions: Sprague-Dawley, rat, plasma, iv; female rats, i.v. 10 mg/kg
MEASURED_PARAMETER: AUC(0-t) (ng·h/mL)
Only the number, expressed in ng·h/mL, is required.

Problem: Supply measured AUC(0-t) of CC#C[C@]1(O)CC[C@H]2[C@@H]3CCC4=CC(=O)CCC4=C3[C@@H](c3ccc(NC)cc3)C[C@@]21C [metapristone, N-monodemethyl mifepristone] in your reply.
Result: 9750
